System: P. aeruginosa (1051575)
Assay: MIC determination by microplate dilution, P. aeruginosa animal strain
Assay type: cell-based, Pseudomonas aeruginosa
Details: Pseudomonas aeruginosa, Gram-negative, Mueller-Hinton medium, 24 h, 37° C.
The threshold is 30 µg/mL. Values of MIC beneath it are tagged Met; values meeting or exceeding it are tagged Not met.

COC(=O)CC[C@@H](C)[C@H]1CCC2C3C(CC[C@@]21C)[C@@]1(C)CC[C@H](NCCCNCCCN)CC1C[C@@H]3O (stereo partly drawn) [(13), methyl 3β-norspermidinoursodeoxycholate] :: Not met

Req: I wonder whether CC(C)OC(=O)CC[C@@H](C)[C@H]1CCC2C3CCC4C[C@@H](NCCCNCCCN)CC[C@]4(C)C3CC[C@@]21C (stereo partly drawn) [(16), isopropyl 3β-norspermidinolithocholate] has MIC below 30 µg/mL. Can you tell?
Resp: Met

Req: I wonder whether CC(C)OC(=O)CC[C@@H](C)[C@H]1CCC2C3CCC4C[C@@H](NCCCN(C)CCCN)CC[C@]4(C)C3CC[C@@]21C (stereo partly drawn) [(49)] has MIC below 30 µg/mL. Can you tell?
Resp: Met

Req: I wonder whether COC(=O)CC[C@@H](C)[C@H]1CCC2C3CCC4C[C@@H](NCCNCCNCCNCCN)CC[C@]4(C)C3C[C@H](O)[C@@]21C (stereo partly drawn) [(19)] has MIC below 30 µg/mL. Can you tell?
Resp: Met

Req: I wonder whether CC(C)OC(=O)CC[C@@H](C)[C@H]1CCC2C3C(CC[C@@]21C)[C@@]1(C)CC[C@H](NCCCN(CCCN)CCCN)CC1C[C@H]3O (stereo partly drawn) [(39)] has MIC below 30 µg/mL. Can you tell?
Resp: Met

Req: I wonder whether CC(C)OC(=O)CC[C@@H](C)[C@H]1CCC2C3CCC4C[C@@H](NCCCN(C)CCCN)CC[C@]4(C)C3C[C@H](O)[C@@]21C (stereo partly drawn) [(30)] has MIC below 30 µg/mL. Can you tell?
Resp: Not met

Req: I wonder whether CC(C)OC(=O)CC[C@@H](C)[C@H]1CCC2C3C(CC[C@@]21C)[C@@]1(C)CC[C@H](NCCCN(CCCN)CCCN)CC1C[C@@H]3O (stereo partly drawn) [(42)] has MIC below 30 µg/mL. Can you tell?
Resp: Not met

Req: I wonder whether CC(C)OC(=O)CC[C@@H](C)[C@H]1CCC2C3C(CC[C@@]21C)[C@@]1(C)CC[C@H](NCCCNCCCN)CC1C[C@H]3O (stereo partly drawn) [(11)] has MIC below 30 µg/mL. Can you tell?
Resp: Met

Req: I wonder whether CC(C)OC(=O)CC[C@@H](C)[C@H]1CCC2C3C(CC[C@@]21C)[C@@]1(C)CC[C@H](NCCCN(C)CCCN)CC1C[C@H]3O (stereo partly drawn) [(41)] has MIC below 30 µg/mL. Can you tell?
Resp: Met

Req: I wonder whether COC(=O)CC[C@@H](C)[C@H]1CCC2C3CCC4C[C@@H](NCCCNCCCN)CC[C@]4(C)C3C[C@H](O)[C@@]21C (stereo partly drawn) [(4), methyl 3β-norspermidinodeoxycholate] has MIC below 30 µg/mL. Can you tell?
Resp: Met

Req: I wonder whether CC(C)OC(=O)CC[C@@H](C)[C@H]1CCC2C3C(CC[C@@]21C)[C@@]1(C)CC[C@H](NCCCN(C)CCCN)CC1C[C@@H]3O (stereo partly drawn) [(44)] has MIC below 30 µg/mL. Can you tell?
Resp: Met

Req: I wonder whether COC(=O)CC[C@@H](C)[C@H]1CCC2C3CCC4C[C@@H](NCCNCCNCCNCCNCCN)CC[C@]4(C)C3C[C@H](O)[C@@]21C (stereo partly drawn) [(20)] has MIC below 30 µg/mL. Can you tell?
Resp: Met

Req: I wonder whether CC(C)OC(=O)CC[C@@H](C)[C@H]1CCC2C3CCC4C[C@@H](NCCNCCNCCNCCNCCN)CC[C@]4(C)C3CC[C@@]21C (stereo partly drawn) [(26)] has MIC below 30 µg/mL. Can you tell?
Resp: Not met

Req: I wonder whether COC(=O)CC[C@@H](C)[C@H]1CCC2C3C(CC[C@@]21C)[C@@]1(C)CC[C@H](NCCCN(C)CCCN)CC1C[C@H]3O (stereo partly drawn) [(37)] has MIC below 30 µg/mL. Can you tell?
Resp: Met

Req: I wonder whether COC(=O)CC[C@@H](C)[C@H]1CCC2C3CCC4C[C@@H](NCCCNCCCNCCCN)CC[C@]4(C)C3CC[C@@]21C (stereo partly drawn) [Compound (17), methyl 3β-norsperminolithocholate] has MIC below 30 µg/mL. Can you tell?
Resp: Met

Req: I wonder whether COC(=O)CC[C@@H](C)[C@H]1CCC2C3C(CC[C@@]21C)[C@@]1(C)CC[C@H](NCCCNCCCN)CC1C[C@H]3O (stereo partly drawn) [(9), methyl 3β-norspermidinochenodeoxycholate] has MIC below 30 µg/mL. Can you tell?
Resp: Met

Req: I wonder whether CC(C)OC(=O)CC[C@@H](C)[C@H]1CCC2C3C(C[C@H](O)[C@@]21C)[C@@]1(C)CC[C@H](NCCNCCNCCNCCNCCN)CC1C[C@H]3O (stereo partly drawn) [(21)] has MIC below 30 µg/mL. Can you tell?
Resp: Not met

Req: I wonder whether COC(=O)CC[C@@H](C)[C@H]1CCC2C3CCC4C[C@@H](NCCCNCCCN)CC[C@]4(C)C3CC[C@@]21C (stereo partly drawn) [(18), methyl 3β-norspermidinolithocholate] has MIC below 30 µg/mL. Can you tell?
Resp: Met

Req: I wonder whether COC(=O)CC[C@@H](C)[C@H]1CCC2C3CCC4C[C@@H](NCCCN(CCCN)CCCN)CC[C@]4(C)C3CC[C@@]21C (stereo partly drawn) [(46)] has MIC below 30 µg/mL. Can you tell?
Resp: Met

Req: I wonder whether CC(C)OC(=O)CC[C@@H](C)[C@H]1CCC2C3C(CC[C@@]21C)[C@@]1(C)CC[C@H](NCCCNCCCNCCCN)CC1C[C@H]3O (stereo partly drawn) [Compound (10)] has MIC below 30 µg/mL. Can you tell?
Resp: Met

Req: I wonder whether CC(C)OC(=O)CC[C@@H](C)[C@H]1CCC2C3CCC4C[C@@H](NCCN(CCN)CCN)CC[C@]4(C)C3C[C@H](O)[C@@]21C (stereo partly drawn) [(29)] has MIC below 30 µg/mL. Can you tell?
Resp: Not met

Req: I wonder whether COC(=O)CC[C@@H](C)[C@H]1CCC2C3C(C[C@H](O)[C@@]21C)[C@@]1(C)CC[C@H](NCCCN(C)CCCN)C[C@H]1C[C@H]3O (stereo partly drawn) [(33)] has MIC below 30 µg/mL. Can you tell?
Resp: Not met
